- Test system: NCI-H226 lung
- METHOD_NOTES: NCI-60 one-dose screen, 48 h (100 = growth as untreated, 0 = no growth, -100 = all killed)
- RUN_CONDITIONS: 10 µM unless noted
Compounds without any hit were thinned out: in the full panel of roughly 83,000, 20% have a hit.
MEASURED_ATTRIBUTE: growth (%)
# unit: % | format: bare number

The recorded growth for entry O=S(=O)(Nc1cccc2cc(OS(=O)(=O)c3ccccc3)ccc12)c1ccccc1 equals 74.7

The recorded growth for entry CC(=O)O[C@@H]1[C@@H](OC(C)=O)[C@H](OC(C)=O)CO[C@H]1Nc1cccc2ccccc12 equals 97.2

The recorded growth for entry Cc1ccc(-c2nc3c(N=Nc4ccc(S(N)(=O)=O)cc4)c(N)nn3c(N)c2C#N)cc1 equals 65

The recorded growth for entry CC(C(C(=O)N1CCCCC1)N1CCCCC1)N1CCCCC1 (centres undefined) equals 109

The recorded growth for entry O=C1c2ccccc2C(=O)c2c(NCCN=Cc3c(O)ccc4ccccc34)cccc21 equals 91.7

The recorded growth for entry N#Cc1c(N)nc2c(c1N)C(c1ccc(Cl)cc1)C1=C(CCCC1=O)N2c1sc2c(c1C#N)CCCC2 (centres undefined) equals 89.2

The recorded growth for entry NN=C(c1ccc(Cl)cc1)c1ccc(Cl)cc1 equals 108

The recorded growth for entry O=C(c1cc(-c2ccc(Cl)cc2)nc2ccccc12)N1N=C(c2ccccc2)CC1c1cc(-c2ccccc2)nn1-c1ccccc1 (centres undefined) equals 84.1

The recorded growth for entry COc1ccc(Cl)cc1NC(=O)c1cc2c([nH]1)-c1nc(NC(=O)C(C)C)sc1CC2 equals 79.5

* * *

- Tested on: 786-0 renal
- METHOD_NOTES: NCI-60 one-dose screen, 48 h (100 = growth as untreated, 0 = no growth, -100 = all killed)
- RUN_CONDITIONS: 10 µM unless noted
This is part of a sample that, as a whole, favours compounds with a hit. Of some 83,000 tested, about 20% had one in any assay.
Kindly state growth for each of the entries shown.
# unit: % | format: bare number

The recorded growth for entry N#CC1=C(N)Oc2c(ccc3ccccc23)C1c1cc(=O)oc2ccc(Cl)cc12 (stereo not given) equals 29.4

The recorded growth for entry O=[N+]([O-])c1cccc2cc(S(=O)(=O)O)ccc12 equals 100

The recorded growth for entry COc1ccc(-c2nnc(SCC(=O)Nc3ccc(C(=O)/C=C/c4ccccc4)cc3)o2)cc1OC equals 101

The recorded growth for entry COc1cc(/C=C\c2cc(/C=C\c3ccc(O)c(OC)c3)n(C(=O)CNc3ccccc3OC)n2)ccc1O equals 97.4

The recorded growth for entry COc1cc2ncnc(Oc3ccc(NC(=O)Nc4ccc(C5(C#N)CCCC5)cc4)c4ccccc34)c2cc1OC equals -40.7

* * *

- System: SK-MEL-28 melanoma
- METHOD_NOTES: NCI-60 one-dose screen, 48 h
- RUN_CONDITIONS: 10 µM unless noted
Compounds without any hit were thinned out: in the full panel of roughly 83,000, 20% have a hit. The source made the active and inactive calls. How the source made its calls: active means growth percent below 10; inactive means the rest.
Just give me one of these, please: true (1) = active, false (0) = inactive

Query string: Which outcome was entered for the molecule COc1ccc(C2CC(c3cc(Cl)c(C)cc3OC)=NN2c2ccc(S(N)(=O)=O)cc2)cc1OC (centres undefined) in this test?
Result string: false (0)

Query string: Which outcome was entered for the molecule O=C(Nc1ccc(-n2cc(-c3ccncc3)c(-c3ccc(O)c(Cl)c3)n2)cc1)c1ccc(Cl)c(C(F)(F)F)c1 in this test?
Result string: false (0)

Query string: Which outcome was entered for the molecule O=C(CSc1nnc(-c2ccccc2)o1)Nc1ccc(C(=O)/C=C/c2ccccc2)cc1 in this test?
Result string: false (0)

Query string: Which outcome was entered for the molecule COc1ccc2c(c1)O/C(=C/c1ccc(OCC(=O)Nc3ccc(S(N)(=O)=O)cc3)cc1)C2=O in this test?
Result string: false (0)

Query string: Which outcome was entered for the molecule COc1ccc(OCC(O)CN2CCN(c3ccc(Cl)cc3)CC2)cc1 (centres undefined) in this test?
Result string: false (0)

Query string: Which outcome was entered for the molecule Cc1ccc2[nH]c3nc4cccnc4c(C)c3c2c1 in this test?
Result string: false (0)

Query string: Which outcome was entered for the molecule O=S(=O)(CCN1CCOCC1)Nc1cc(-c2ccc3ncnc(Nc4ccc(F)c(Cl)c4)c3c2)cnc1Cl in this test?
Result string: true (1)

Query string: Which outcome was entered for the molecule O=C(O)c1ccc(-n2cc(/C=N/Nc3ccccc3F)c(-c3ccc(O)cc3)n2)cc1 in this test?
Result string: false (0)

Query string: Which outcome was entered for the molecule Fc1cccc(F)c1C#Cc1ccc2cccnc2c1 in this test?
Result string: false (0)
